%Inh for assorted molecules
System: CDKL2;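 further: KINOMEscan kinase panel screen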
conditions used: concentration: 1 μM, replicates: in singlicate; n = 1

{"molecule": "FC(F)(F)c1ccc(-c2ncn(CCCN3CCOCC3)c2-c2ccncc2)cc1", "unit annotation": "%", "%Inh": 0}
{"molecule": "Nc1nccc2scc(-c3ccc4c(c3)CCN4C(=O)Cc3ccccc3)c12", "unit annotation": "%", "%Inh": 17}
{"molecule": "Cc1nnc(-c2ccc3ncn(-c4ccc(S(C)=O)cc4)c3c2)o1 (stereo not shown)", "unit annotation": "%", "%Inh": 0}
{"molecule": "Cc1nc(N(C)[C@H]2CN(C(=O)CC#N)CC[C@H]2C)c2cc[nH]c2n1", "unit annotation": "%", "%Inh": 0}
